# STUDY TARGET: Human Cav2.2 channels (Homo sapiens)
# Construct: expressed in transfected cells
# Sequence (Q00975 whole entry): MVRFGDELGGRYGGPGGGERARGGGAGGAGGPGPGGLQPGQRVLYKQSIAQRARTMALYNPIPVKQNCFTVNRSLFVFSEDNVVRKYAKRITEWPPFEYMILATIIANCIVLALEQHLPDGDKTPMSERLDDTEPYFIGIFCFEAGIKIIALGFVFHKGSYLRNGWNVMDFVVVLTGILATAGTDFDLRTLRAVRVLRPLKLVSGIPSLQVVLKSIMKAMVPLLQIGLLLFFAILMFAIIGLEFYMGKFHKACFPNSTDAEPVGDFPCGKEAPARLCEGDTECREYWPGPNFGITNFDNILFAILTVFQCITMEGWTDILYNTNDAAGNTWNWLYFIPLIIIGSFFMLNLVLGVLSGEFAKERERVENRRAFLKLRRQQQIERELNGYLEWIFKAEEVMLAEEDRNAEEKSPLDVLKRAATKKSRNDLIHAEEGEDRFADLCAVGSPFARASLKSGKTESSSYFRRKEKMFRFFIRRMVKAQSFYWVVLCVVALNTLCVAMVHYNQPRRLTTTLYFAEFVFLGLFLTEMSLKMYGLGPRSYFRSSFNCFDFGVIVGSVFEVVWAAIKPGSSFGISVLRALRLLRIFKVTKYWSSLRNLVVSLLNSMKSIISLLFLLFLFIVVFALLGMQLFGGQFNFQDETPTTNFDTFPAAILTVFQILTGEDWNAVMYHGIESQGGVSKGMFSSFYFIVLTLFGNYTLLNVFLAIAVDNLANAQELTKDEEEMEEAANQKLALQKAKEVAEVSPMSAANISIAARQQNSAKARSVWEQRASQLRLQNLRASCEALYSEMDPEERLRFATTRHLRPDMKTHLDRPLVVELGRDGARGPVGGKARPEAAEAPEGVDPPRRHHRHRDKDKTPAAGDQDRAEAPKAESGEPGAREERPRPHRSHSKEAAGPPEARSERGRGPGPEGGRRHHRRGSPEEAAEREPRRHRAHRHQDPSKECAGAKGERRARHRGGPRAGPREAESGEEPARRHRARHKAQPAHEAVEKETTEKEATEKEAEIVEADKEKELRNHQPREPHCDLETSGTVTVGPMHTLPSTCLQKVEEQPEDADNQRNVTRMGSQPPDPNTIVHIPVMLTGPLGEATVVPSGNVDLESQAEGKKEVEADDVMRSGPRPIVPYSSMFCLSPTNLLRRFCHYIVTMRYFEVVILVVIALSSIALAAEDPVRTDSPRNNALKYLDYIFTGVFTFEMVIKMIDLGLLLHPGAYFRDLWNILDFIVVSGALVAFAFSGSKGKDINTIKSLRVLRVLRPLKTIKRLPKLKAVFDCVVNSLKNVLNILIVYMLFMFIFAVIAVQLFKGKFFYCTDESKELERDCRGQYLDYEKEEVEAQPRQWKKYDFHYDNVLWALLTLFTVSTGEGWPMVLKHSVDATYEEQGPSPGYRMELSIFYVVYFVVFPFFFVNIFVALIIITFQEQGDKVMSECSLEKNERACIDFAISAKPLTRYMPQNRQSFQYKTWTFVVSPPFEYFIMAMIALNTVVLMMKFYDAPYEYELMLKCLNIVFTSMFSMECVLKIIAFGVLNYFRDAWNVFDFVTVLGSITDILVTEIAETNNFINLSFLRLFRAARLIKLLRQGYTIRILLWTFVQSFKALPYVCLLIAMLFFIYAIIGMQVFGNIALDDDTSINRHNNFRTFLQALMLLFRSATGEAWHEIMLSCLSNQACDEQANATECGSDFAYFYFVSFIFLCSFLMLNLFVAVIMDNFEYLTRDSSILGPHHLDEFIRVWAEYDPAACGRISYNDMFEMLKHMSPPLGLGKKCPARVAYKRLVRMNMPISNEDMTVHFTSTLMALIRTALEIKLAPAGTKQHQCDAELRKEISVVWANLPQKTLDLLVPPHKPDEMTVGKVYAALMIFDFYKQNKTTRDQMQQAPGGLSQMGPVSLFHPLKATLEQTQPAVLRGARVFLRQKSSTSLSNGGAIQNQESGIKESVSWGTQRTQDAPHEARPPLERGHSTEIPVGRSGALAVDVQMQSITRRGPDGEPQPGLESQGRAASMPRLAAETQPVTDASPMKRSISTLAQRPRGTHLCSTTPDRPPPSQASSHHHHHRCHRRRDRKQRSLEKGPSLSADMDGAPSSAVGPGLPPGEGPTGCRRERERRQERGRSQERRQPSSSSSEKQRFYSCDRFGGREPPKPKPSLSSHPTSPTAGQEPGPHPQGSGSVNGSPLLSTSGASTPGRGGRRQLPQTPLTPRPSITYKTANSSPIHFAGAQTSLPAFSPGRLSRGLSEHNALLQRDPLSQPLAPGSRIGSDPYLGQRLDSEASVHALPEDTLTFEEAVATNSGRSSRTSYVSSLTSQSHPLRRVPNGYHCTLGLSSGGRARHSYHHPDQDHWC
# Sequence (P54289 25-1103 partner): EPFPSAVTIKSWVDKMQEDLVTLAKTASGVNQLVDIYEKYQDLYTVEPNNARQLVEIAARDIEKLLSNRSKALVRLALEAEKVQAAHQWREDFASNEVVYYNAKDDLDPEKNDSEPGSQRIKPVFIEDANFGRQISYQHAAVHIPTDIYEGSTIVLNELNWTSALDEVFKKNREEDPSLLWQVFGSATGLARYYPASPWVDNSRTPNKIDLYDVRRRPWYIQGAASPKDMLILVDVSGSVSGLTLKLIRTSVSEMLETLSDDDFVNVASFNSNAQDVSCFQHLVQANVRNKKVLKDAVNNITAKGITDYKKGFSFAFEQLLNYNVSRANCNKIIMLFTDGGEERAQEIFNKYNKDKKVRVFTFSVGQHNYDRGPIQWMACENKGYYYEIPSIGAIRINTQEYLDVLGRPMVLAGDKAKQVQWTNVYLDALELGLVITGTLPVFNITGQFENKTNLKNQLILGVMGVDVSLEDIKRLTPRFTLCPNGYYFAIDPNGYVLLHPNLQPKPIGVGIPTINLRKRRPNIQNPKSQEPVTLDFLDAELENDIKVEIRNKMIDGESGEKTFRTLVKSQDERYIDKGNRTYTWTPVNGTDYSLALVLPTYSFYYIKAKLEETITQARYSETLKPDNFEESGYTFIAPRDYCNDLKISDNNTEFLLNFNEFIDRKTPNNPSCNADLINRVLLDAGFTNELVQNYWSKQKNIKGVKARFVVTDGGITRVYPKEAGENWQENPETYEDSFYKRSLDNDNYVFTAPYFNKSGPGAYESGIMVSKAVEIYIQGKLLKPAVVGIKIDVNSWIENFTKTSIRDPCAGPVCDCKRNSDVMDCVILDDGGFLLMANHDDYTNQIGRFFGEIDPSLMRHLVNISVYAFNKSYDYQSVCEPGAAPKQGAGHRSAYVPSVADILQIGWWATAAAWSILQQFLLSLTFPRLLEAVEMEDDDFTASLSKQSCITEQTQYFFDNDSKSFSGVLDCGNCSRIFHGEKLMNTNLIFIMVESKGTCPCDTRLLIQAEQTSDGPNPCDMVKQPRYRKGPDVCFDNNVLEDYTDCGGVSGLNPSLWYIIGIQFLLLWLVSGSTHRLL
# Sequence (P54284 whole entry partner): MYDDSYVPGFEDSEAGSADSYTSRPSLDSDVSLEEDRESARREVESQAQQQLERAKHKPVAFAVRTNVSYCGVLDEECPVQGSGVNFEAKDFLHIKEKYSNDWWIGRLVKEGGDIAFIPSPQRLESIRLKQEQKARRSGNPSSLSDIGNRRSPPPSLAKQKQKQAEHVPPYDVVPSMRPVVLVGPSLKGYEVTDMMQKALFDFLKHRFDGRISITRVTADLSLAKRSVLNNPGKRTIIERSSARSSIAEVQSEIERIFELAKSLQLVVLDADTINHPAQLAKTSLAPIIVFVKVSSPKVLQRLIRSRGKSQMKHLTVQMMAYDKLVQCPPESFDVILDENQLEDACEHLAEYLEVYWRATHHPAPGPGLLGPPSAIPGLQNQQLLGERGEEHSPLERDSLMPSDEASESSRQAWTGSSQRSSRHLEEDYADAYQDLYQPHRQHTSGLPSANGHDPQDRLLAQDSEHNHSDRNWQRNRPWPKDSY
# TEST NAME: Fluorescent assay for Cav2.2 channels using potassium depolarization to initiate channel opening
# Type: cell-based
# CONDITION LABEL: 30 μM compound; read-out: Cav 2.2 Activity % Inh at 30 μM
Form field: inhibition at 30 µM (one value per entry).
Use % as the unit, but write only the number.

Solved cases (5 shown):
CC(C)(C)c1cc(C(=O)NC2(C(=O)NCc3nccs3)CC2)cc(C(C)(C)C)c1O [Compound 1] : 104
COc1c(C(C)(C)C)cc(CC(=O)NC2(C(=O)NCc3ccccc3)CCCCC2)cc1C(C)(C)C [Compound 17] : 90.6
Cc1cc(CNC(=O)C2(NC(=O)c3cc(C(C)(C)C)nc(C(C)(C)C)c3)CC2)no1 [Compound 9] : 53.4
Cc1cnc(CNC(=O)C2(NC(=O)c3cc(C(C)(C)C)nc(C(C)(C)C)c3)CC2)cn1 [Compound 11] : 92.2
Cc1cc(CNC(=O)C2(NC(=O)c3cc(C(C)(C)C)c(O)c(C(C)(C)C)c3)CCCCC2)nn1C [Compound 8] : 99

Kindly indicate its recorded inhibition at 30 µM. Item: CC(C)(C#N)c1ccc(C(=O)NC2(C(=O)NCc3ccccc3)CCCCC2)cc1 [Compound 122] 80.5
